Source: a melting point compilation (Tetko et al.; mined from patent text by program, amines drawn as free bases though some values may be those of a salt)

Measured melting point accompanies every entry in the list below.

Below are worked cases with known answers.
COMPOUND: COc1ccc(-c2ccc3nccn3c2)cc1-c1ccc2nonc2c1
ASSAY_RESULT: 190 to 196 °C
--
COMPOUND: Fc1ccc(Nc2ncnc3[nH]c(-c4ccc(CCl)cc4)cc23)cc1Cl
ASSAY_RESULT: > 300 °C
--
COMPOUND: CCCC(=O)SCC(Cc1ccccc1)C(=O)Nc1cccc(C(=O)O)c1C (centres undefined)
ASSAY_RESULT: 136 to 141 °C

Problem: Would you mind telling me what melting point value was observed for O=C(O)c1cn(-c2ccccc2)c2cc(-c3ccncc3)ccc2c1=O ?
Solution: > 325 °C
